biological target: PLK-1 (Homo sapiens, UniProt P53350); construct: Fusionsprotein bestehend aus GST und Plk (Kinase Domäne 33-345; MW 36 kDa, conc 0,8 µg/µl); GST; made in house; host or cells: Hi5 insect cells; test: PLK-1 enzyme assay at 10 mM ATP (indirect HTRF assay); assay type: biochemical; conditions: comparison with prior art (Tabelle 3), read-out: Inhibition PLK-1 IC50 [M] (10 mM ATP)
Sequence (P53350 33-345): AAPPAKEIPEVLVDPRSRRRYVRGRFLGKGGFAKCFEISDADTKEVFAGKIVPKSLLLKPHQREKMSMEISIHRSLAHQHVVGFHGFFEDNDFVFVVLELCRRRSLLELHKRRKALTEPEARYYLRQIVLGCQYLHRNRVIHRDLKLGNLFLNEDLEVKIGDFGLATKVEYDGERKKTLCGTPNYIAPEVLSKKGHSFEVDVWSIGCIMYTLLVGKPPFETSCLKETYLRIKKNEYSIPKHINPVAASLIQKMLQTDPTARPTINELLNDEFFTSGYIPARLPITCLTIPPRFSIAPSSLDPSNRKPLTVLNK
Property Measured: IC50 (M)
Lab book: enter the figure in M, no units written.

**Q:** Annotate the molecule CCn1c(=C(C#N)C(=O)NCC(F)(F)F)sc(=CNc2cccc(CCN3CCCC3)c2)c1=O [Beispiel 30 aus PCT/EP2005/013418, reference compound] with its measured IC50.
**A:** 1.1e-07

* * *

tested on: DU145; assay: Proliferation assay (crystal violet staining), DU145; type: cell-based, human; settings: Homo sapiens, DU-145, 96 h, tumour cell proliferation, 4 days incubation, read-out: Inhibition IC50 [M] (DU145)
Property Measured: log10 IC50 (log10 of the value in M)
Hi team, quick reminder: these entries are log10 of IC50 (M).

**Q:** For DU145, give the measured log10 IC50 of the entry "CCn1c(=O)c(=CNc2ccc3ccn(C4CC(C)(C)N(C)C(C)(C)C4)c3c2)s/c1=C(/C#N)C(=O)NCC#N"
**A:** -7.46

**Q:** For DU145, give the measured log10 IC50 of the entry "CCn1c(=O)c(=CNc2ccc3c(C(=O)C(C)(C)C)cn(C4CCN(C)CC4)c3c2)s/c1=C(/C#N)C(=O)NCC#N"
**A:** -6.89

**Q:** For DU145, give the measured log10 IC50 of the entry "CCn1c(=O)c(=CNc2ccc3c(c2)c(C2CCN(C)CC2)cn3C)s/c1=C(/C#N)C(=O)NCC(F)(F)F"
**A:** -7.07

**Q:** For DU145, give the measured log10 IC50 of the entry "CCn1c(=O)c(=CNc2ccc3c(c2)c(CCN2CCCC2)cn3C)s/c1=C(/C#N)C(=O)NCC(F)(F)F"
**A:** -6.74

**Q:** For DU145, give the measured log10 IC50 of the entry "CCn1c(=C(C#N)C(=O)NCC(F)(F)F)sc(=CNc2ccc3ccn(CC(=O)N(C)C)c3c2)c1=O"
**A:** -6.29

**Q:** For DU145, give the measured log10 IC50 of the entry "CCn1c(=C(C#N)C(=O)NC(C)(C)CO)sc(=CNc2ccc3ccn(C4CCN(C)CC4)c3c2)c1=O"
**A:** -6.92

**Q:** For DU145, give the measured log10 IC50 of the entry "CCn1c(=C(C#N)C(=O)NCC(F)(F)F)sc(=CNc2ccc3ccn(C4CCN(CC(=O)OC)CC4)c3c2)c1=O"
**A:** -6.92

Values from patent EP2141163A1
